Record form. Attribute: Serum Free Fatty Acids (% control values). Fill in for each entry.
test system: tissue cholesterol; assay: Effects in cholesterol fed rats (serum, liver and aorta lipids); type: in vivo; conditions: cholesterol fed rats (C.F), 200 mg/kg/day
State the value, then name its unit.

>  <compound>
COP(=O)(OC)C(O)(c1ccc(C(=O)c2ccc(Cl)cc2)cc1)P(=O)(OC)OC [Compound 9]

>  <observed_measurement>
-52%

$$$$
>  <compound>
COP(=O)(OC)C(O)(c1ccccc1)P(=O)(OC)OC [Compound 2]

>  <observed_measurement>
-56%

$$$$
>  <compound>
COP(=O)(OC)C(O)(C(C)(C)Oc1ccc(Cl)cc1)P(=O)(OC)OC [Compound 7]

>  <observed_measurement>
-40%

$$$$
>  <compound>
CCOP(=O)(OCC)C(Cc1ccc(Cl)cc1)P(=O)(OCC)OCC [Compound 27]

>  <observed_measurement>
-65%

$$$$

Field: next compound
Could you tell me which Serum Free Fatty Acids (% control values) is on file for COP(=O)(OC)C(O)(c1ccc(Cl)cc1)P(=O)(OC)OC [Compound 4] ?
-67%

Origin of measurements: patent US4416877A
